# System: VDR homodimer (NR concentration 270 nM)
# protocol-summary: PBM binding z-score (relative to random genomic background probes); higher = stronger binding; sequences stand for … in GC…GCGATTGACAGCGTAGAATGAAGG
# PBM binding z-score per entry
Give the figure only, with no unit attached.

[[record]]
sequence_chain = "ATCTCTAGGTAAGACTCAGTTCAGCGAAGAACGC"
val = 1.48


Task: Quick one: give measured PBM binding z-score for CAAACTAGGTCAAAGGTCAAAGTGGAGCCAACCA
Result: 3.27

Task: Quick one: give measured PBM binding z-score for GTAACGAGGGCAAAGTTGATAGCATCTGTCGACG
Result: 1.7

Task: Quick one: give measured PBM binding z-score for AGAATGAGGTTATTAAGATCACGGAATTGCGGTC
Result: 1.73

Task: Quick one: give measured PBM binding z-score for GATACAGGGTCTGCTAGAGGCCAGAGTATGGAAA
Result: -0.39

Task: Quick one: give measured PBM binding z-score for AGAATGAGGTTACCAAAGATCGGGGAAACGCTTG
Result: -0.00618

Task: Quick one: give measured PBM binding z-score for CCTGCTAGGTCACTGGTCAGCTAAAGCAGCTCGC
Result: 0.123

Task: Quick one: give measured PBM binding z-score for CGAACTAGGTCACAACAGGACAGTGAAGGATGAT
Result: 0.27

Task: Quick one: give measured PBM binding z-score for ATATGTAGGTTACATCCGGGTCACTCAGGCTATG
Result: 2.29

Task: Quick one: give measured PBM binding z-score for CCTCGGGGGACAACAGGAGGTCAGAGCTGCCAGA
Result: 1.19

Task: Quick one: give measured PBM binding z-score for TCTTGTATATCAAGCAGGTTAAGAAAGCCTGAGT
Result: 0.228

Task: Quick one: give measured PBM binding z-score for ATACCAAGGTGATCGTGACGTCGTTGATACTAAC
Result: -0.00274

Task: Quick one: give measured PBM binding z-score for CAGACAGGGTCAGCTAGGCCAGAGTAGGGACGGC
Result: 0.912

###

# PBM binding z-score per entry
# Test system: THRa:RXRa (NR concentration 90 nM, RXRa partner concentration 90 nM)
# protocol-summary: PBM binding z-score (relative to random genomic background probes); higher = stronger binding; sequences stand for … in GC…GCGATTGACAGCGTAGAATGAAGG
Give the figure only, with no unit attached.

Example sequences with recorded PBM binding z-score:
[[record]]
sequence_chain = "TCATATAGGTAAACATGTGAAAGTCCGTAAGTTA"
val = 0.435

[[record]]
sequence_chain = "CGAACTAGGTCATTGACAGGCCAGTGAATAGTAA"
val = 2.53

[[record]]
sequence_chain = "TATACAGGGTCAAAGGCCAGAGGACGAATGTCGA"
val = 3.5

[[record]]
sequence_chain = "CCTAGTTGGTGAAGGTCACACACGCTATAGGTAC"
val = 2.89

[[record]]
sequence_chain = "GGAACGAGGGCAAGTTGATAGGAGAGTTTGATGG"
val = 1.27


Task: Provide THRa:RXRa (NR concentration 90 nM, RXRa partner concentration 90 nM) PBM binding z-score reading for AGTCAAAGTTCACTAGGTAACGTATGATTCAGCT .
Result: 2

Task: Provide THRa:RXRa (NR concentration 90 nM, RXRa partner concentration 90 nM) PBM binding z-score reading for ATATGTAGGTTAAGGGTCATTAAGGTTGGTTCGC .
Result: 3.48
